# Tested on: Escherichia coli
# ASSAY NAME: Antibacterial activity against Escherichia coli clinical isolates after 24 hrs by microdilution method
# Format: functional
Provide the reported MIC of each item.
One number for each entry, in µg/mL.

Consider the following items and state reported MIC for each.
1. CC(C)(C)c1cc(C(C)(C)C)cc(S(=O)(=O)Nc2ccc(CC(=O)NCCNC(=N)N)cc2)c1.Cl
2. CC(C)(C)c1cc(C(C)(C)C)cc(S(=O)(=O)Nc2cccc(C(=O)NCCNC(=N)N)c2)c1.Cl
3. Cc1cc(C(=O)NCCNC(=N)N)ccc1NS(=O)(=O)c1cc(C(C)(C)C)cc(C(C)(C)C)c1.Cl
4. CC(C)(C)c1cc(C(C)(C)C)cc(S(=O)(=O)NCCCCNC(=N)N)c1.Cl

result:
1. 64
2. 64
3. 64
4. 128

Consider the following items and state reported MIC for each.
1. CN(c1ccc(C(=O)NCCCNC(=N)N)cc1)S(=O)(=O)c1cc(C(C)(C)C)cc(C(C)(C)C)c1.Cl
2. CC(C)(C)c1cc(C(C)(C)C)cc(S(=O)(=O)Nc2cc3ccccc3cc2C(=O)NCCN)c1.Cl
3. CC(C)(C)c1cc(C(C)(C)C)cc(S(=O)(=O)Nc2ccccc2C(=O)NCCNC(=N)N)c1.Cl
4. CN(c1ccc(C(=O)NCCNC(=N)N)cc1)S(=O)(=O)c1cc(C(C)(C)C)cc(C(C)(C)C)c1.Cl
5. CC(C)(C)c1cc(C(C)(C)C)cc(S(=O)(=O)Nc2ccccc2C(=O)NCCN)c1.Cl

result:
1. 16
2. 32
3. 64
4. 32
5. 128

Reference source for all entries: ChEMBL document CHEMBL4152356
